TARGET UNDER TEST: MAP3K4 (human)
MEASUREMENT PROTOCOL: KINOMEscan competition binding
MEASUREMENT CONTEXT: compound 10.0 µM
MEASURE: kinase still bound, per cent of control

* CC(C)n1nc(-c2cc3cc(O)ccc3[nH]2)c2c(N)ncnc21 | 85%

Hi! What's the reported kinase still bound, per cent of control for `CCC(=O)N1CCN(c2ccc(-n3c(=O)ccc4cnc5ccc(-c6cnc7ccccc7c6)cc5c43)cc2C(F)(F)F)CC1` on MAP3K4 (human)?
47%

Missing value: kinase still bound, per cent of control, MAP3K4 (human), entry `COC(=O)Nc1ccc(-c2nc(N3CCOCC3)c3cnn(C4CCN(C(=O)OC)CC4)c3n2)cc1` . Fill in?
100%

Enter reported kinase still bound, per cent of control observed with MAP3K4 (human) for `COc1ccc(-c2ccc3c(N4CCOCC4)nc(N4C[C@@H](C)O[C@@H](C)C4)nc3n2)cc1CO`
100%
